Target: recombinant human bradykinin B2 receptor (Homo sapiens)
Construct: expressed in transfected cells; host or cells: Chinese hamster ovary (CHO) cells, membrane homogenates
Experiment: [3H]-BK competition radioligand binding to human cloned B2 receptor (CHO cell membranes)
Details: 0.2 nM [3H]-bradykinin, CHO membranes, 60 min 23° C.; mean ± SEM or single value; Ki from IC50 by Cheng-Prusoff; read-out: [3H]-BK Binding to Human Cloned B2 Receptor (Ki)
Procedure: Chinese hamster ovary (CHO) cell membrane homogenates (2.5 μg protein) expressing the recombinant human bradykinin B2 receptor were incubated for 60 min at 23° C. with 0.2 nM [^3H]-bradykinin (95.5 Ci/mmole, PerkinElmer) in the absence or presence of the test compound in a buffer containing 50 mM Tris/HCl (pH 7.4), 0.2 g/L 1-10-phenanthroline and 0.1% BSA. […] Nonspecific binding was determined in the presence of 1 μM unlabeled bradykinin. […]
pKi: −log10 of the molar value.
We use 7 as the dividing line for pKi: on or above the line is Met, below is Not met.

Take a look at these entries with their results.
smiles input	assigned label
CC(=O)Nc1ccc(CCC(=O)NCC(=O)N(C)c2ccc(Cl)c(COc3cccc4c(OCc5ccccn5)cc(C)nc34)c2Cl)cc1	Met
COc1nc2c(OCc3c(C)ccc(N(C)C(=O)CNC(=O)CN4CCC(NC(C)=O)CC4)c3C)cccc2n1Cc1ccccn1	Not met

Request: Quick check: does COc1nc2c(OCc3c(Cl)ccc(N(C)C(=O)CNC(=O)CCCN4CCN(C(C)=O)CC4)c3Cl)cccc2n1Cc1ccccn1 have pKi greater than or equal to 7?
Result: Not met

====

For each record, write down the corresponding EC50.
Target: BK receptors in human ciliary muscle cells (h-CM) (Homo sapiens, UniProt P30411)
Construct: h-CM cells expressing BK receptors were seeded; endogenous in cells; host or cells: human ciliary muscle (h-CM) cells
Sequence (P30411 1-391): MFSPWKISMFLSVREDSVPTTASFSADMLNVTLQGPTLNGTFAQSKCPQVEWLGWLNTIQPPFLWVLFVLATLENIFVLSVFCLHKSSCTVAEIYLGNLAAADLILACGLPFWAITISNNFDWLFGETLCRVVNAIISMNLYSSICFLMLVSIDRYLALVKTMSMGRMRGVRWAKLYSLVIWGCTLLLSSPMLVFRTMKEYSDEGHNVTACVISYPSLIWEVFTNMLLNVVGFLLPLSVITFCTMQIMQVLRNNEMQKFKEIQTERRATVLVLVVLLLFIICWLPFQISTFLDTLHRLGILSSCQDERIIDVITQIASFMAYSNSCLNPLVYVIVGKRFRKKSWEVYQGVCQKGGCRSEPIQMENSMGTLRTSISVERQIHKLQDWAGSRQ
Assay: Functional assay measuring [Ca2+]i mobilization (FLIPR) in h-CM cells
Assay type: cell-based
Conditions: class symbols (in μM), read-out: CaM (EC50)

Return reported EC50 values for all items listed beneath this line.
1. CNC(=O)N1CCN(CC(=O)NCC(=O)N(C)c2ccc(Cl)c(COc3cccc4c3nc(OC)n4Cc3ccccn3)c2Cl)CC1
2. CNC(=O)c1ccc(CCC(=O)NCC(=O)N(C)c2ccc(Cl)c(COc3cccc4c(OCc5cn(C)cn5)cc(C)nc34)c2Cl)cn1 [Compound 87]
3. COc1nc2c(OCc3c(C)ccc(N(C)C(=O)CNC(=O)CN4CCC(NC(C)=O)CC4)c3C)cccc2n1Cc1ccccn1
4. CNC(=O)C1CCCN(CC(=O)NCC(=O)N(C)c2ccc(Cl)c(COc3cccc4c3nc(OC)n4Cc3ccccn3)c2Cl)C1 (stereo not shown)
5. CCc1nc2c(OCc3c(Cl)ccc(N(C)C(=O)CNC(=O)CNC4CCN(C(=O)NC)CC4)c3Cl)cccn2c1C(O)c1ccccn1 (stereo not shown)
6. CNC(=O)c1ccc(CCC(=O)NCC(=O)N(C)c2ccc(Cl)c(COc3cccc4c3nc(OC)n4Cc3ccccn3)c2Cl)cn1
7. CNC(=O)c1ccc(OCC(=O)NCC(=O)N(C)c2ccc(Cl)c(COc3cccc4c3nc(OC)n4Cc3ccccn3)c2Cl)cc1
8. COc1nc2c(OCc3c(Cl)ccc(N(C)C(=O)CNC(=O)CCc4cnc(NC(C)=O)nc4)c3Cl)cccc2n1Cc1ccccn1

Result:
1. 0.1 to 1 µM
2. 0.1 to 1 µM
3. 0.1 to 1 µM
4. < 0.1 µM
5. > 1 µM
6. < 0.1 µM
7. < 0.1 µM
8. < 0.1 µM

These measurements were taken from patent US8252793B2.
